System: IL-6 production in LPS-stimulated murine spleenocytes
Test: Inhibition of IL-6 production in LPS-stimulated murine spleenocytes in vitro
Type: cell-based
Conditions: Mus musculus, 50 μM concentration of the compound, read-out: inhibition of interleukin-6 (IL-6) production
Listed below: inhibition at 50 µM values for each entry.

Compound	Target or system	Measured endpoint	Observed
CC[C@H]1OC(=O)[C@H](C)[C@@H](O[C@H]2C[C@@](C)(OC)[C@@H](O)[C@H](C)O2)[C@H](C)[C@@H](O[C@@H]2O[C@H](C)C[C@H](N(C)C)[C@H]2OCCCNC(=O)CN(C)C)[C@](C)(O)C[C@@H](C)CN(C)[C@H](C)[C@@H](O)[C@]1(C)O [Example 7]	IL-6 production in LPS-stimulated murine spleenocytes	inhibition at 50 µM	> 40%

Turning to the following compound.
Identify the measured inhibition at 50 µM of CC[C@H]1OC(=O)[C@H](C)[C@@H](O[C@H]2C[C@@](C)(OC)[C@@H](O)[C@H](C)O2)[C@H](C)[C@@H](O[C@@H]2O[C@H](C)C[C@H](N(C)C)[C@H]2OCCCNC(=O)c2ccc(Cl)cc2)[C@](C)(O)C[C@@H](C)CN(C)[C@H](C)[C@@H](O)[C@]1(C)O [Example 29] for IL-6 production in LPS-stimulated murine spleenocytes.
> 40%
